Experiment: S16 Schwann cell PMP22 intronic element firefly luciferase assay (AID 624032); note: nearly all actives have a fitted effect of over 30% in size; note: potency is the fitted concentration of half-maximal effect
Conditions: S16 rat Schwann cells, PMP22 element FLuc, 24 h; series mostly up to 25.7 µM
Results filed as inconclusive are left out. Active and inactive are the calls of the source. Calls come from the whole dose curve; as a rule, active = well fitted inhibition curve with a large enough effect; inconclusive = small, poorly fitted or top-dose-only effect; inactive = no such curve, though single readings can be large or run the other way.
value.kind: Potency

Some compounds with known Potency results, for comparison:
CCN(CCCCOC(=O)c1ccc(OC)c(OC)c1)[C@@H](C)Cc1ccc(OC)cc1
inactive
C[C@@H]1C[C@H]2[C@@H]3C[C@H](F)C4=CC(=O)C=C[C@@]4(C)[C@]3(F)[C@H](O)C[C@]2(C)[C@@]1(O)C(=O)CO
inactive
CC1=C(C(=O)O)N2C(=O)[C@@H](NC(=O)[C@@H](N)c3ccc(O)cc3)[C@@H]2SC1
inactive
C[C@H](N[C@@H](C)COc1ccccc1)[C@H](O)c1ccc(O)cc1
1.55 µM (active)

For the next question, use this compound.
Q) // returns reported Potency for input CC1(C)O[C@@H]2C[C@H]3[C@H]4C[C@H](F)C5=CC(=O)CC[C@]5(C)[C@@H]4[C@H](O)C[C@]3(C)[C@]2(C(=O)CO)O1
A) inactive

----------
Target: Rap guanine nucleotide exchange factor 3 (Homo sapiens)
Assay: Counterscreen qHTS for antagonist of cAMP-regulated guanine nucleotide exchange factor 3 (EPAC1) (AID 1645888);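 note: fluorescence loss as bound BODIPY-GDP is released from Rap1B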
Details: Rap1B-BODIPY-GDP nucleotide exchange, fluorescence; series mostly up to 154 µM
Records with an inconclusive call do not appear. Activity calls are given as the source filed them. Calls follow the shape of the dose curve; as a rule, active = well fitted inhibition curve with a large enough effect; inconclusive = small, poorly fitted or top-dose-only effect; inactive = no such curve, though single readings can be large or run the other way.
value.kind: activity change, negative = inhibition

C=CCOc1ccc(C(c2c(C(=O)O)[nH]c3ccccc23)c2c(C(=O)O)[nH]c3ccccc23)cc1
inactive
CC1Cc2cc(/C=C3/SC(=S)NC3=O)ccc2O1 (stereo not given)
inactive
COc1ccc(C(=O)Nc2cccc(/C=C(\CCC(=O)O)c3nc4ccccc4s3)c2)cc1
inactive
C#CC(c1ccccc1)(c1ccccc1)n1ccnc1
inactive

Q) // returns reported activity change, negative = inhibition for input Cc1cc(C)c2nc(C)cc(Nc3ccc(C(=O)NCCO)cc3)c2c1
A) inactive

----------
Molecular target: Luciferin 4-monooxygenase (Photinus pyralis) (UniProt P08659)
Sequence (P08659 whole entry, looked up): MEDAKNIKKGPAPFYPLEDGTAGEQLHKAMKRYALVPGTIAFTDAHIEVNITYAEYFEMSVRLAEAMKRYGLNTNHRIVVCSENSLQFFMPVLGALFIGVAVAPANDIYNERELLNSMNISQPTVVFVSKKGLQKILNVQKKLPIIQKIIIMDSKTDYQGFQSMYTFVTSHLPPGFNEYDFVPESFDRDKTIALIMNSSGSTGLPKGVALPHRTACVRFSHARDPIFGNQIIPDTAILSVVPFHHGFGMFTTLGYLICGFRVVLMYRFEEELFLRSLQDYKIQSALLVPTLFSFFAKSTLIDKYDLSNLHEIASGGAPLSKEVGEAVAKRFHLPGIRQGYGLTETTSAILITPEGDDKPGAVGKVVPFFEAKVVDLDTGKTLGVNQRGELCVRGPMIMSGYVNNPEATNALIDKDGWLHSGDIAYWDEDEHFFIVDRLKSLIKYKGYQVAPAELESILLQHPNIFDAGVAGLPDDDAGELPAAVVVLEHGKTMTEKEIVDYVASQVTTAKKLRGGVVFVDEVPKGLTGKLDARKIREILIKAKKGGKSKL
Experiment: Biochemical firefly luciferase enzyme assay for NPC (AID 624030);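 note: purified P. pyralis luciferase at 10 nM with luciferin and ATP substrate; nearly all actives have a fitted effect of over 70% in size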
Conditions: purified P. pyralis luciferase, luminescence, 5 min; series mostly up to 24.9 µM
Results filed as inconclusive are left out. Active and inactive are the calls of the source. The call rests on the fitted dose curve; in most records, active means well fitted inhibition curve with a large enough effect; inconclusive means small, poorly fitted or top-dose-only effect; inactive means flat fitted curve, though single readings scatter.
value.kind: outcome

CC[C@H](CO)NCCN[C@@H](CC)CO
inactive
Clc1ccc([C@H](Cn2ccnc2)OCc2c(Cl)cccc2Cl)c(Cl)c1
inactive
CC(=O)OCC(=O)[C@@]1(O)CC[C@@H]2[C@H]3CCC4=CC(=O)C=C[C@]4(C)[C@]3(F)[C@@H](O)C[C@@]21C
inactive
CCN(CC)CCOC(=O)[C@@H](Cc1cccc2ccccc12)C[C@@H]1CCCO1
inactive
C#C[C@@]1(O)CC[C@@H]2[C@@H]3CCC4=C(CCC(=O)C4)[C@H]3CC[C@]21C
inactive

Q) // returns reported outcome for input CC(=O)C[C@H](c1ccc([N+](=O)[O-])cc1)c1c(O)c2ccccc2oc1=O
A) inactive

Q) // returns reported outcome for input NS(=O)(=O)c1cc2c(cc1Cl)N[C@@H](CC1CCCC1)NS2(=O)=O
A) inactive

Q) // returns reported outcome for input NS(=O)(=O)c1cc2c(cc1Cl)N[C@@H](C(Cl)Cl)NS2(=O)=O
A) inactive

Q) // returns reported outcome for input CCCC(=O)Nc1ccc(OC[C@@H](O)CNC(C)C)c(C(C)=O)c1
A) inactive

Q) // returns reported outcome for input O=C1O[C@@H]([C@@H](O)CO)[C@@H](O)[C@H]1O
A) inactive
